Origin of values: ChEMBL document CHEMBL5528069

assay comment: Metabolic stability in human liver microsomes assessed as compound remaining measured after 10 mins
Format: ADME, Microsome
assay conditions: read-out: Stability
endpoint name: remaining at 10 min (%)

molecule	endpoint name	units of measure	assay value
COc1cnc2c(-c3nc4c(Cl)cc5c(c4s3)OCC(CO)O5)cc(C)cc2n1 (stereo not drawn)	remaining at 10 min	%	100
COc1ccc(NC(=O)OCC2COc3c(cc(Cl)c4nc(-c5cc(C)cc6nc(OC)cnc56)sc34)O2)cc1 (stereo not drawn)	remaining at 10 min	%	81
COc1cnc2c(-c3nc4c(Cl)cc5c(c4s3)OCC(COC(=O)Nc3ccc(Cl)cc3)O5)cc(C)cc2n1 (stereo not drawn)	remaining at 10 min	%	100
